Source: a melting point compilation (Tetko et al.; mined from patent text by program, amines drawn as free bases though some values may be those of a salt)

Listing of recorded melting point by entry.

[
  {
    "COMPOUND": "CCCc1c2c(nc3cc(F)c(F)cc13)-c1cc3c(c(=O)n1C2)COC(=O)CC3(O)CC (centres undefined)",
    "READOUT KIND": "melting point",
    "REPORTED": "250 °C"
  }
]

In: Given the compound `CC(C)(C)OC(=O)NC(C)(C)c1ccc(-c2nc(Nc3ccc(OCCO)cc3)ncc2C#N)cc1` , what is its reported melting point?
Out: 126 to 127 °C

In: I am curious: what melting point value has been reported for CCN1CCCC1CNC(=O)c1cc(S(=O)(=O)NC)cc2c1OCCO2 (centres undefined) ?
Out: 136 to 137 °C

In: Look up melting point: `Cc1nc2cc(/C=C/C(=O)NO)ccc2c(=O)n1CCc1ccccc1`
Out: 227 to 229 °C

In: Any idea what its melting point is? The compound is `O=C(O)COc1ccc2c(c1)-c1nc(SCC(c3ccccc3)c3ccccc3)sc1CC2`
Out: 165 to 167 °C

In: Recorded melting point of O=C1NC(=O)C(Cc2ccc(N3CCC(NC[C@H](O)c4ccc5nnnn5c4)CC3)cc2)S1 (some centres undefined) , please.
Out: 130 to 132 °C

In: Data request, read-out melting point, for `Cc1c2c(nn1C)c(N)nc1ccccc12`
Out: > 250 °C

In: Returns the measured melting point for the input compound. Input: CCc1nc(NC(C)=O)nc(NC(C)c2cccs2)n1 (centres undefined)
Out: 153 °C

In: Can you share its melting point? I mean this compound: `CCc1nc(Cc2ccc(NC(=O)/C=C/c3cnn(C)c3-c3ccc(F)cc3)cc2)no1`
Out: 150 to 152 °C

====

READOUT KIND: melting point

Record excerpt, results attached:
[
  {
    "COMPOUND": "COC(=O)C1=C(C)NC(C)=C(c2nc(C)no2)C1c1cccc(N)c1 (stereo not given)",
    "melting point": "248 to 249 °C"
  },
  {
    "COMPOUND": "Nc1nc(O)c2c(n1)NCC(CCc1nc(C(=O)N[C@@H](CCC(=O)O)C(=O)O)cs1)C2 (stereo not given in full)",
    "melting point": "210 to 212 °C"
  },
  {
    "COMPOUND": "Cc1cc([N+](=O)[O-])ccc1-c1ccc(-c2ccc([N+](=O)[O-])cc2C)o1",
    "melting point": "242 to 243 °C"
  }
]

In: Please give the measured melting point for this compound: `N#Cc1cc2cc(O)c(O)cc2s1`
Out: 229 to 230 °C

In: Give the measured melting point of `CC(=O)N1CCN(c2c(F)c(C)c3c(=O)c(C(=O)O)cn(C4CC4)c3c2F)CC1` .
Out: 217 to 220 °C

====

READOUT KIND: melting point

# example entries with known answers
[
  {
    "COMPOUND": "COc1cc2c(cc1OC)CN(CCCSc1ccc(NC(=O)c3cccc4c(=O)c5cccc(F)c5[nH]c34)cc1)CC2",
    "melting point": "162 °C"
  },
  {
    "COMPOUND": "O=C(O)CCCCCCCCCCCCO",
    "melting point": "77 to 78 °C"
  },
  {
    "COMPOUND": "CCC1(CC)CN(C(C)(C)C)C(=O)C(CC)(CC)N1OC(=O)c1ccccc1",
    "melting point": "91 to 93 °C"
  },
  {
    "COMPOUND": "CCOC(=O)[C@@H]1C[C@@H](O)CN1S(C)(=O)=O",
    "melting point": "111 to 113 °C"
  },
  {
    "COMPOUND": "COC(=O)c1cc(NC(=O)OC(C)(C)C)c(N)cc1C#Cc1ccccc1",
    "melting point": "164 °C"
  },
  {
    "COMPOUND": "NC(=O)C(=O)CCCCl",
    "melting point": "87 °C"
  },
  {
    "COMPOUND": "Cc1ccc2c(=O)cc[nH]c2c1[N+](=O)[O-]",
    "melting point": "> 250 °C"
  },
  {
    "COMPOUND": "COc1ccc(CC(=O)c2ccc(OC)nc2)cc1",
    "melting point": "101 to 102 °C"
  },
  {
    "COMPOUND": "CCCCCCCCCCCCC1=C(O)C(=O)c2c(Cl)cccc2C1=O",
    "melting point": "102 to 104 °C"
  },
  {
    "COMPOUND": "CSC1=Nc2ccccc2C2=NCC(Cn3ccnc3)N12 (stereo unspecified)",
    "melting point": "97 to 99 °C"
  }
]

In: Need melting point of `Cc1cc(S)n2nc(CN=[N+]=[N-])nc2n1` , thanks.
Out: 214 to 215 °C

In: // returns reported melting point for input `Cc1ccc(CC2CCN(C(=O)C(=O)Nc3ccc(NS(C)(=O)=O)cc3)CC2)cc1`
Out: 179 to 181 °C

In: Form field: reported melting point of CCCn1cc2c(C3C(=O)Nc4ccc(Br)cc43)nc(Cl)nc2n1 (stereo unspecified)
Out: > 300 °C

In: What value of melting point has been recorded for this entry: `CCOC(=O)c1c(-c2ccc(C(C)(C)C)cc2)n(C)n(-c2ccc(C#N)cc2)c1=O`
Out: 202 to 204 °C

In: Please give the measured melting point for this compound: O=C(O)C1=Cc2cc(OC(F)(F)F)ccc2OC1C(F)(F)F (stereo unspecified)
Out: 118 to 120 °C

In: If you can, please state the reported melting point value of `O=c1[nH]c2ccccc2n1CCCN1CCC(O)(c2ccc(Cl)cc2)CC1` .
Out: 134 °C

====

READOUT KIND: melting point

Worked cases, melting point given:
[
  {
    "MOLECULE": "CC1(CCOC2CCCCO2)C(=O)NNC1=O (stereo unspecified)",
    "melting point": "179 to 180 °C"
  },
  {
    "MOLECULE": "CC(C)c1ccc(N(Cc2cnn(Cc3ccccc3)c2)C(=O)C2CCCc3c(O)cccc32)cc1 (stereo unspecified)",
    "melting point": "130 °C"
  },
  {
    "MOLECULE": "CCCSNc1ccc(N)cc1",
    "melting point": "213 to 225 °C"
  }
]

In: Need melting point, item `CCOC(=O)Cc1cc2cc(Br)ccc2s1`
Out: 56 to 57 °C

In: Give the measured melting point of `OCc1ncn2cc(Br)sc12` .
Out: 104 to 105 °C

In: # lookup: melting point of `CC(C)(C)OC(=O)N1CCC(c2cc(F)c3oc(-c4ccc(S(C)(=O)=O)cc4F)nc3c2)CC1`
Out: 188 to 192 °C

In: melting point lookup needed for CSC1C(=O)Nc2c(C(=O)c3ccc(F)cc3)cc(Cl)cc21 (stereo unspecified) , thanks.
Out: 202 to 204 °C

In: Param item = `CC(=O)CCS(=O)(=O)C(c1ccc(Cl)cc1)c1ccc(Cl)cc1` ; retrieve measured melting point.
Out: 103 to 105 °C

In: Returns the measured melting point for the input molecule. Input: `O=C(O)Cc1noc(Cc2ccccc2)n1`
Out: 109 to 112 °C

In: For the molecule `CC(=O)NNC(=O)Nc1ccccc1-c1ccc(C)cc1` , what melting point is on record?
Out: 102 to 104 °C

In: So what's the measured melting point for this one? `COc1ccc(-c2csc(Nc3cccnc3)n2)cc1OC`
Out: 251 to 254 °C

====

Reported melting point is given for each of the following compounds.

Please review the following examples before continuing.
[
  {
    "COMPOUND": "COc1c(Cl)cc2c(=O)[nH]c(=O)[nH]c2c1OC",
    "REPORTED": "272 to 273 °C"
  },
  {
    "COMPOUND": "COC(=O)CCc1cc2cc(Cl)ccc2n1S(=O)(=O)c1ccc2nc(NC(C)=O)sc2c1",
    "REPORTED": "217 to 221 °C"
  },
  {
    "COMPOUND": "CC1CC(=O)N(CCCCN2C(=O)c3ccccc3C2=O)C1=O (stereo not given)",
    "REPORTED": "79 to 80 °C"
  },
  {
    "COMPOUND": "COCCN1CC(c2ccccc2)NC1=O (stereo not given)",
    "REPORTED": "82 to 83 °C"
  }
]

Shifting focus to the compound that follows.
In: Please look up its melting point: CC(CCc1nnn[nH]1)Cc1ccc(OCc2ccc3ccccc3n2)cc1 (stereo not given)
Out: 75 to 77 °C

====

Recorded melting point by entry

[
  {
    "MOLECULE": "COc1ccc2cc(C(O)C(C)N3CCC(NC(=O)c4ccccc4)CC3)ccc2c1 (stereo not given)",
    "melting point": "175 to 177 °C"
  },
  {
    "MOLECULE": "COc1cc(Oc2cccc(C(F)(F)F)c2)nc(C(=O)NC(OC)C(F)(F)F)c1 (stereo not given)",
    "melting point": "102 to 104 °C"
  }
]

In: I'd like to know its melting point. The molecule in question is `COC(=O)CCC#Cc1cc(Cl)ccc1NS(=O)(=O)c1ccc2nc(NC(C)=O)sc2c1`
Out: 85 °C

In: // returns reported melting point for input `FC(F)(F)C(=C1SCCCS1)c1ccccc1`
Out: 87 to 88 °C

In: Entry `COc1c2ccccc2nc2c1c(C)nn2-c1ccccn1` has what melting point?
Out: 44 to 47 °C
